The values you see were collected from the supplement of paper PMC10065799.

Molecular target: Jak2 (UniProt O60674)
Sequence (O60674 whole entry, looked up): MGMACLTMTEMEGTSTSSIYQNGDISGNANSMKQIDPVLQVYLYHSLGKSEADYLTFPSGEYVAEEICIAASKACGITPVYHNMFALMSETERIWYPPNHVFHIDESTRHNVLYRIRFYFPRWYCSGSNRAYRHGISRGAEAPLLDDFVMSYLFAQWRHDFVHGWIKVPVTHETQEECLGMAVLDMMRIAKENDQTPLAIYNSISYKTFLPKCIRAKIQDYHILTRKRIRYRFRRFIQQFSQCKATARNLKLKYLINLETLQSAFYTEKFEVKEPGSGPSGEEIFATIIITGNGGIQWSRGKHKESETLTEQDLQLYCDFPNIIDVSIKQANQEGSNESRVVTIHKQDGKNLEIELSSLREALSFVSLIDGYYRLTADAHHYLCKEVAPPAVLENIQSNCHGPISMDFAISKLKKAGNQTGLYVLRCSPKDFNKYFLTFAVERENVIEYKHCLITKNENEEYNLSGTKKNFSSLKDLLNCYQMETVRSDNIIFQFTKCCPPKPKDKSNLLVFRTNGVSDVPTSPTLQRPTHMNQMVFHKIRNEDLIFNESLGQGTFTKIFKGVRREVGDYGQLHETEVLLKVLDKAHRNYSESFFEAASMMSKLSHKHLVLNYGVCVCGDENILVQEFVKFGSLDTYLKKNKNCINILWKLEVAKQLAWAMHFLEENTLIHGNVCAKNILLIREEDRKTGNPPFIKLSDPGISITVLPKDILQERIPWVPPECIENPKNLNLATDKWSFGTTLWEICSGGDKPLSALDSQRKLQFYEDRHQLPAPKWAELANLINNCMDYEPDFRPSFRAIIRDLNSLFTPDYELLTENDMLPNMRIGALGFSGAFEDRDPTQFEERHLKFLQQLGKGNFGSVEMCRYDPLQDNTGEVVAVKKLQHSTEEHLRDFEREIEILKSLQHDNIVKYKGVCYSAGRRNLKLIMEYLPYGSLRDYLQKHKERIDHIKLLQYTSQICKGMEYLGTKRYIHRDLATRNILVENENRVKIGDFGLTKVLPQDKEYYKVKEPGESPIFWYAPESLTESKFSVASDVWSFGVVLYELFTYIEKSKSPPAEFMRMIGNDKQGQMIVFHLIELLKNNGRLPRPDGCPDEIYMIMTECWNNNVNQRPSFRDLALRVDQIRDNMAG
Assay: phosphorylation enrichment, bacterial display (enrichment ratio); higher = better substrate or ligand; peptides without Tyr show the background;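 note: 11-residue human phosphosite peptides and single-mutation variants displayed on the E. coli surface, counted by deep sequencing, each peptide's frequency after selection divided by its frequency in the unselected input library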;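 note: frequency after pTyr selection over input frequency; kinase dosed for 20-30% of maximal phosphorylation in three min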
Assign phosphorylation enrichment to each entry below.
The reply should be a number, written without any unit.

Incoming: Note down phosphorylation enrichment recorded for GLRFGYGGLGG [KRTAP20-2_Y15_V17G_YF]
Outgoing: 0.581

Incoming: Retrieve phosphorylation enrichment measured for LMLVLYGRIFL [HTR1A_Y215_R220L] and print it.
Outgoing: 1.28

Incoming: State its phosphorylation enrichment for this sequence: RSSKMYPKTRS [LPL_Y329_L330P]
Outgoing: 1.43

Incoming: Return the recorded phosphorylation enrichment value; entry: RDLTDYLMKIL [ACTA1_Y190]
Outgoing: 1.16

Incoming: Give the reported value of phosphorylation enrichment for this record: SARFRYLLAEK [LDHB_Y173_M175L]
Outgoing: 0.641

Incoming: // fetch phosphorylation enrichment given entry CTTIHNNFMCN [TP53_Y234_Y234N_YF]
Outgoing: 0.95

Incoming: Could you please provide reported phosphorylation enrichment for MGCVNYGAYIN [GLB1_Y485_R482C] ? Thanks!
Outgoing: 1.56

Incoming: Given ILQSMYGCDVG [HLA-B_Y123_T118I] , respond with its phosphorylation enrichment.
Outgoing: 0.893

Incoming: Could you please provide reported phosphorylation enrichment for VVAHQYSFAPD [TNS3_Y601] ? Thanks!
Outgoing: 0.529

Incoming: Name the recorded phosphorylation enrichment of the item KGSEGYLAATY [NF1_Y2503] in your answer.
Outgoing: 0.627

Incoming: Give phosphorylation enrichment for the following sequence: PFWKLYESVKK [MKI67_Y241]
Outgoing: 1.58

Incoming: Look up and report measured phosphorylation enrichment for this entry: PIFEGYGLPHA [ACTA1_Y171_A172G_YF]
Outgoing: 0.836

Incoming: Specify phosphorylation enrichment for IGEGTYRQVFK [CDK13_Y716_G717R_YF] and stop.
Outgoing: 0.715

Incoming: Note down phosphorylation enrichment recorded for WAAQRYGRELR [BAD_Y110]
Outgoing: 0.782
